Where do the numbers come from? From patent US9686985B2.

# Tested on: Septoria tritici
# assay-text: Example L: in vivo preventive test on Septoria tritici (wheat)
# condition-details: table L; 500 ppm; wheat plants; grading 24 days after contamination
Each record here notes measured Efficacy.
Respond numerically; units are % and should not be typed.

Check out these entries, answers already filled in.
{"columns": ["molecule", "Efficacy / %"],
 "data": [
  ["Cn1nc(C(F)F)c(C(=O)N(CC2CCc3ccccc32)C2CC2)c1F (stereo not shown) [I.2]", 100],
  ["Cc1cccc2c1CCC2CN(C(=O)c1c(C(F)F)nn(C)c1Cl)C1CC1 (stereo not shown) [I.4]", 79],
  ["Cn1nc(C(F)F)c(C(=O)N(CC2CCc3c(Cl)cc(Cl)cc32)C2CC2)c1F (stereo not shown) [I.18]", 93]
]}

Query string: Tell me the measured Efficacy of Cn1nc(C(F)F)c(C(=O)N(CC2CC(C)(C)c3ccccc32)C2CC2)c1F (stereo not shown) [I.9] , please.
Result string: 97

Query string: // next record Cn1nc(C(F)F)c(C(=O)N(CC2CCc3ccc(C(F)(F)F)cc32)C2CC2)c1F (stereo not shown) [I.17]
Result string: 94

Query string: // next record Cn1nc(C(F)F)c(C(=O)N(CC2CCCCc3ccccc32)C2CC2)c1F (stereo not shown) [I.30]
Result string: 100

Query string: // next record Cn1nc(C(F)F)c(C(=O)N(CC2CCc3c(F)cccc32)C2CC2)c1Cl (stereo not shown) [I.8]
Result string: 71

Query string: // next record CC1CCC(CN(C(=O)c2c(C(F)F)nn(C)c2F)C2CC2)c2ccccc21 (stereo not shown) [I.24]
Result string: 100

* * *

# assay-text: log P by HPLC on reversed-phase column (EEC Directive 79/831 Annex V.A8)
# Format: physicochemical
# condition-details: Table 1; HPLC C18, 40° C., 0.1% aqueous formic acid and acetonitrile gradient
reported-endpoint: logP
Lab note: record just the number, no unit beside it.

{"columns": ["compound", "logP"],
 "data": [
  ["Cn1nc(C(F)F)c(C(=S)N(CC2CC(C)(C)c3ccccc32)C2CC2)c1F (stereo not shown) [I.11]", 4.69]
]}

Query string: Tell me the measured logP of CC1CCC(CN(C(=O)c2c(C(F)F)nn(C)c2F)C2CC2)c2ccccc21 (stereo not shown) [I.24] , please.
Result string: 3.96

Query string: // next record Cn1nc(C(F)F)c(C(=O)N(CC2CCc3cccc(Br)c32)C2CC2)c1Cl (stereo not shown) [I.22]
Result string: 4.08

Query string: // next record Cn1nc(C(F)F)c(C(=O)N(CC2CCCc3cccc(Cl)c32)C2CC2)c1F (stereo not shown) [I.28]
Result string: 4.09

* * *

Each record here notes measured chromatographic logP.
# assay-text: log P by HPLC on reversed-phase column (EEC Directive 79/831 Annex V.A8)
# Type: physicochemical
Lab note: record just the number, no unit beside it.

Check out these entries, answers already filled in.
{"columns": ["molecule", "chromatographic logP"],
 "data": [
  ["c1ccc2c(c1)CCCCC2CNC1CC1 (centres unmarked) [IIf.16]", 1.17],
  ["CC1CCC(CNC2CC2)c2ccccc21 (centres unmarked) [IIf.12]", 1.22],
  ["Brc1cccc2c1C(CNC1CC1)CC2 (centres unmarked) [IIf.10]", 1.08],
  ["Fc1cccc2c1CCC2CNC1CC1 (centres unmarked) [IIf.4]", 0.82],
  ["Cc1cc(C)c2c(c1)C(CN(C(=O)c1c(C(F)F)nn(C)c1F)C1CC1)CCC2 (centres unmarked) [I.37]", 4.44]
]}

Query string: Tell me the measured chromatographic logP of Cc1cccc2c1CCC2CNC1CC1 (centres unmarked) [IIf.2] , please.
Result string: 1

Query string: // next record FC(F)(F)c1ccc2c(c1)C(CNC1CC1)CC2 (centres unmarked) [IIf.8]
Result string: 1.25

Query string: // next record c1ccc2c(c1)CCC2CNC1CC1 (centres unmarked) [IIf.1]
Result string: 0.75

* * *

# System: Puccinia recondita
# assay-text: Example R: in vivo preventive test on Puccinia recondita (brown rust on wheat)
# condition-details: table R; 500 ppm; wheat plants; grading 12 days after contamination
Each record here notes measured Efficacy.
Respond numerically; units are % and should not be typed.

Check out these entries, answers already filled in.
{"columns": ["compound", "test-system", "result-number"],
 "data": [
  ["Cc1cccc2c1CCC2CN(C(=O)c1c(C(F)F)nn(C)c1F)C1CC1 (stereo not drawn) [I.3]", "Puccinia recondita", 94],
  ["Cn1nc(C(F)F)c(C(=O)N(CC2CCc3c(Cl)cc(Cl)cc32)C2CC2)c1Cl (stereo not drawn) [I.19]", "Puccinia recondita", 88],
  ["Cn1nc(C(F)F)c(C(=O)N(CC2CCc3c(Cl)cc(Cl)cc32)C2CC2)c1F (stereo not drawn) [I.18]", "Puccinia recondita", 94],
  ["Cn1nc(C(F)F)c(C(=O)N(CC2CCSc3ccc(F)cc32)C2CC2)c1F (stereo not drawn) [I.35]", "Puccinia recondita", 78],
  ["Cn1nc(C(F)F)c(C(=O)N(CC2CCc3ccc(C(F)(F)F)cc32)C2CC2)c1F (stereo not drawn) [I.17]", "Puccinia recondita", 100]
]}

// below: Efficacy requested for another compound
Query string: Tell me the measured Efficacy of Cn1nc(C(F)F)c(C(=O)N(CC2CCc3c(F)cccc32)C2CC2)c1Cl (stereo not drawn) [I.8] , please.
Result string: 75

* * *

# assay-text: log P by HPLC on reversed-phase column (EEC Directive 79/831 Annex V.A8)
# Assay type: physicochemical
# condition-details: Table 1; HPLC C18, 40° C., 0.1% aqueous formic acid and acetonitrile gradient
API: label(entry) gives 1 if the entry's logP is strictly smaller than 4; on equality or larger values it gives -1.

Take a look at these entries with their results.
{"columns": ["compound", "class-assignment"],
 "data": [
  ["Cn1nc(C(F)F)c(C(=O)N(CC2CCc3c(F)cccc32)C2CC2)c1F (centres unmarked)", 1],
  ["Cc1cccc2c1CCC2CN(C(=O)c1c(C(F)F)nn(C)c1F)C1CC1 (centres unmarked)", 1]
]}

Now let's try a different one.
Query string: I'd appreciate it if you could check whether COc1cccc2c1CCCC2CN(C(=S)c1c(C(F)F)nn(C)c1F)C1CC1 (centres unmarked) has logP smaller than 4.
Result string: -1

* * *

# System: Puccinia recondita
# assay-text: Example R: in vivo preventive test on Puccinia recondita (brown rust on wheat)
# condition-details: table R; 500 ppm; wheat plants; grading 12 days after contamination
API: label(entry) gives yes if the entry's Efficacy is strictly smaller than 90%; on equality or larger values it gives no.

Take a look at these entries with their results.
{"columns": ["molecule", "class-assignment"],
 "data": [
  ["Cn1nc(C(F)F)c(C(=O)N(CC2CC(C)(C)c3ccccc32)C2CC2)c1F (stereo not shown)", "no"],
  ["Cn1nc(C(F)F)c(C(=O)N(CC2CCCCc3ccccc32)C2CC2)c1F (stereo not shown)", "no"],
  ["Cn1nc(C(F)F)c(C(=O)N(CC2CCc3cccc(Cl)c32)C2CC2)c1F (stereo not shown)", "yes"],
  ["Cn1nc(C(F)F)c(C(=O)N(CC2CC(C)(C)Oc3ccccc32)C2CC2)c1F (stereo not shown)", "no"],
  ["Cn1nc(C(F)F)c(C(=O)N(CC2CCOc3ccccc32)C2CC2)c1F (stereo not shown)", "yes"],
  ["Cn1nc(C(F)F)c(C(=O)N(CC2CCc3cc(Cl)ccc32)C2CC2)c1F (stereo not shown)", "yes"],
  ["Cn1nc(C(F)F)c(C(=S)N(CC2CCc3c(Cl)cc(Cl)cc32)C2CC2)c1F (stereo not shown)", "yes"],
  ["CC(C1CCCc2ccccc21)N(C(=O)c1c(C(F)F)nn(C)c1F)C1CC1 (stereo not shown)", "no"],
  ["Cc1ccc2c(c1)CCC2CN(C(=O)c1c(C(F)F)nn(C)c1F)C1CC1 (stereo not shown)", "no"],
  ["Cn1nc(C(F)F)c(C(=S)N(CC2CC(C)(C)c3ccccc32)C2CC2)c1F (stereo not shown)", "no"]
]}

Query string: I'd appreciate it if you could check whether Cc1ccc2c(c1)CCC2CN(C(=O)c1c(C(F)F)nn(C)c1Cl)C1CC1 (stereo not shown) has Efficacy smaller than 90%.
Result string: yes

Query string: // next record Cn1nc(C(F)F)c(C(=O)N(CC2CCc3ccccc32)C2CC2)c1F (stereo not shown)
Result string: no

Query string: // next record Cn1nc(C(F)F)c(C(=O)N(CC2CCc3c(F)cccc32)C2CC2)c1F (stereo not shown)
Result string: no

Query string: // next record CC1CCC(CN(C(=O)c2c(C(F)F)nn(C)c2F)C2CC2)c2ccccc21 (stereo not shown)
Result string: no

Query string: // next record Cn1nc(C(F)F)c(C(=O)N(CC2CCSc3ccc(Cl)cc32)C2CC2)c1F (stereo not shown)
Result string: yes
